Origin of values: patent US20160200831A1

# tested target: human PAI-1 (human, UniProt P05121 24-402)
# Sequence (P05121 24-402 limits assumed): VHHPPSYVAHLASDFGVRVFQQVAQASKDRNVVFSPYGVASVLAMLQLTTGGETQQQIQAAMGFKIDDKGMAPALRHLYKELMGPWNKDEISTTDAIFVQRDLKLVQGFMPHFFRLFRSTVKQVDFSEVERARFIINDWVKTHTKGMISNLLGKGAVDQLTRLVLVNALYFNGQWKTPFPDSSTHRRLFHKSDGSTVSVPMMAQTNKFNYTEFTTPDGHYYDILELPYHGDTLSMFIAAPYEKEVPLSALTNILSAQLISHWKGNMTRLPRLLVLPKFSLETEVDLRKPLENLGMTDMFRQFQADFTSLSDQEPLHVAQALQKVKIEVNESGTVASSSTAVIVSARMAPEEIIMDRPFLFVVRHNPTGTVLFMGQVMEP
# assay: cell-based or functional assay
value kind: active PAI-1 by uPA-PAI-1 complex ELISA, hPlasma TH1782, IC50 (nM)
Form entry: value (nM) — number only.

Exercise: Entry A44-hv11 (antibody, V domains shown, humanized A44, HEK293; compared with a human IgG1 isotype control; constant regions as for A44-hv1; also called A44V11; A44v11) VH: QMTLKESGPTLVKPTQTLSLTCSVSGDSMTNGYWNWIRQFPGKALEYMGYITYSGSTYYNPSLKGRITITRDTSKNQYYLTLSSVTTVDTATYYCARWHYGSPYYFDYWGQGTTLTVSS VL: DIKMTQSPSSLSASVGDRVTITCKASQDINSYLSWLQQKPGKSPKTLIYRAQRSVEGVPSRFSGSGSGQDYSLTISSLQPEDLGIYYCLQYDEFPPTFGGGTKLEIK : reported active PAI-1 by uPA-PAI-1 complex ELISA, hPlasma TH1782, IC50 = ?
Solution: 0.0157

Exercise: Would you mind doing A44-hv14 (antibody, V domains shown, humanized A44, HEK293; constant regions as for A44-hv1; also called LC4 x HC5b; variant 14) VH: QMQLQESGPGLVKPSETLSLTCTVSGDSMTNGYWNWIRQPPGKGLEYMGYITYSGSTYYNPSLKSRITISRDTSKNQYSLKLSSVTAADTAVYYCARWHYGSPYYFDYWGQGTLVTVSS VL: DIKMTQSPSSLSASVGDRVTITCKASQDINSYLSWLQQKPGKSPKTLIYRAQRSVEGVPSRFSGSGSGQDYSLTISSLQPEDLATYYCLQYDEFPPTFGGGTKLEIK as well?
Solution: 0.0586

Exercise: Would you mind doing A44-hv12 (antibody, V domains shown, humanized A44, HEK293; constant regions as for A44-hv1; also called LC4 x HC3; variant 12) VH: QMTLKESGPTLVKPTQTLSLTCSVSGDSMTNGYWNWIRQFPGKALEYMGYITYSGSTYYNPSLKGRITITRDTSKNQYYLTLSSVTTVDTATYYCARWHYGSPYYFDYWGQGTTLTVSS VL: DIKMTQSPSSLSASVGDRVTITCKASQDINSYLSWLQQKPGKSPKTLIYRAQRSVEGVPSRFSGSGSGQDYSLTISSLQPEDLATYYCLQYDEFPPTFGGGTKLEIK as well?
Solution: 0.00335

Read the next record carefully.
Exercise: Entry A44-hv13 (antibody, V domains shown, humanized A44, HEK293; constant regions as for A44-hv1; also called LC2 x HC5b; variant 13) VH: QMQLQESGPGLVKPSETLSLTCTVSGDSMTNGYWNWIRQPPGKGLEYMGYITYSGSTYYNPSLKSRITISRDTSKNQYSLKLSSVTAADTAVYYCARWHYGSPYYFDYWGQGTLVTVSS VL: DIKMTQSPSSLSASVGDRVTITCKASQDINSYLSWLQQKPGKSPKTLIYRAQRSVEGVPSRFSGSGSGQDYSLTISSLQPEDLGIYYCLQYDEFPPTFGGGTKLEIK : reported active PAI-1 by uPA-PAI-1 complex ELISA, hPlasma TH1782, IC50 = ?
Solution: 0.0311
